Provide the recorded remaining enzyme activity (% of control) for the entries that follow.
target_or_system: MMP-9 (Homo sapiens, UniProt P14780)
Construct: purchased Sino Biological 10327-HNAH
Sequence (P14780 107-707 limits assumed): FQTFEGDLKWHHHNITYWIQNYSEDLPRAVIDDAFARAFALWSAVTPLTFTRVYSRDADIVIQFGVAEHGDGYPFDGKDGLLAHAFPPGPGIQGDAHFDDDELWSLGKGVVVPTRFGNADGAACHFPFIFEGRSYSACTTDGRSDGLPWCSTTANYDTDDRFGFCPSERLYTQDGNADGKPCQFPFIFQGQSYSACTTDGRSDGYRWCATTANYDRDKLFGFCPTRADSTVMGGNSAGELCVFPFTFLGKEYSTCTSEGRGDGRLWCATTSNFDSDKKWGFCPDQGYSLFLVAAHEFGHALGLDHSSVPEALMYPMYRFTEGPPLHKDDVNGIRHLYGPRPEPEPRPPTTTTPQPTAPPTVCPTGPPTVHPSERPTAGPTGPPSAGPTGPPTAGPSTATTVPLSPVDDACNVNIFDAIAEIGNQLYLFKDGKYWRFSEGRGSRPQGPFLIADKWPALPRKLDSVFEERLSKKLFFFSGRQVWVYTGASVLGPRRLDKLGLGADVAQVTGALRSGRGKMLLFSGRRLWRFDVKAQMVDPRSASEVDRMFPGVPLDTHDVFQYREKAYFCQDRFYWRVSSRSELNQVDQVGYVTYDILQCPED
test_summary: MMP-9 inhibition assay (fluorogenic peptide substrate)
Format: biochemical
Parameters: scale not given here
experimental_setup: MMP-9; concentration 243.80 µM
Enter a number only.

Suppose we examine the compound Cc1cc(=O)[nH]c(-n2nc(C)c(CCC(=O)NCCCCCCCCNC(=O)CCC(=O)NCc3c[nH]nn3)c2C)n1 ; what remaining enzyme activity (% of control) value has been reported?
51.81

Suppose we examine the compound O=C(CNC(=O)NC12CC3CC(CC(C3)C1)C2)NCCCCCCCCNC(=O)c1cncc(O)c1 ; what remaining enzyme activity (% of control) value has been reported?
52.30

Suppose we examine the compound Cc1cc(=O)[nH]c(-n2nc(C)c(CCC(=O)NCc3c[nH]nn3)c2C)n1 ; what remaining enzyme activity (% of control) value has been reported?
58.59

----------
Provide the recorded remaining activity (%) for the entries that follow.
target_or_system: MMP-2 (Homo sapiens)
Construct: purchased Sino Biological 10082-HNAH
test_summary: MMP-2 inhibition assay (fluorogenic peptide substrate)
Type: biochemical
experimental_setup: MMP-2; concentration 0.49 µM
Enter a number only.

Suppose we examine the compound Cc1cc(=O)[nH]c(-n2nc(C)c(CCC(=O)NCCNC(=O)CC(=O)C=CCCCCNC(=O)c3cnc4c(c3)nc(O)n4C)c2C)n1 ; what remaining activity (%) value has been reported?
90.37

Suppose we examine the compound Cc1cc(=O)[nH]c(-n2nc(C)c(CCC(=O)NCCOCCOCCNC(=O)c3cnc4c(c3)nc(O)n4C)c2C)n1 ; what remaining activity (%) value has been reported?
91.73

Suppose we examine the compound Cc1cc(=O)[nH]c(-n2nc(C)c(CCC(=O)NCCSCC(=O)NCCNC(=O)c3cnc4c(c3)nc(O)n4C)c2C)n1 ; what remaining activity (%) value has been reported?
94.49

Suppose we examine the compound Cn1c(O)nc2cc(C(=O)NCCOCCOCCNC(=O)CNC(=O)NC34CC5CC(CC(C5)C3)C4)cnc21 ; what remaining activity (%) value has been reported?
104.42

----------
Provide the recorded remaining activity (%) for the entries that follow.
target_or_system: MMP-2 (Homo sapiens)
Construct: purchased Sino Biological 10082-HNAH
Sequence (P08253 110-660): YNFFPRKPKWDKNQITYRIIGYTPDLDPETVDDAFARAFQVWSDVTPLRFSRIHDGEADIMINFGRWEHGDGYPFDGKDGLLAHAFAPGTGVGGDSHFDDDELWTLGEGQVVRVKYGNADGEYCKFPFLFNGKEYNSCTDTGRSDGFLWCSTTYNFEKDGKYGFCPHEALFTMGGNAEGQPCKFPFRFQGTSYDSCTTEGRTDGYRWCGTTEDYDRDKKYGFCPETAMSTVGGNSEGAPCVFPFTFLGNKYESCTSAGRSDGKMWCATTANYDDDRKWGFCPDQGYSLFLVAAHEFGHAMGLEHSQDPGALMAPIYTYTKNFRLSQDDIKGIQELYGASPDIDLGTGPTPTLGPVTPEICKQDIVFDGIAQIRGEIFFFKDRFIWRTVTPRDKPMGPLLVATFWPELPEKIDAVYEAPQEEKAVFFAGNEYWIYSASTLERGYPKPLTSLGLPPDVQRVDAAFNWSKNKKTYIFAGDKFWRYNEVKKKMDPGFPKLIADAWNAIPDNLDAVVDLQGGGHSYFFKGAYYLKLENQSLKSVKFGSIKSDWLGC
test_summary: MMP-2 inhibition assay (fluorogenic peptide substrate)
Type: biochemical
experimental_setup: MMP-2; concentration 243.80 µM
Experimental: The inhibition by the small molecule compounds against MMP-2/MMP-9 was measured using an assay probing the enzyme proteolytic activity on the substrate DNP-Pro-Leu-Gly-Met-Trp-Ser-Arg (Enzo Life Sciences, USA). All assays were performed in the assay buffer containing 50 mM Tris, 100 mM NaCl. […] The rate of hydrolysis was monitored by quantifying the emission at 360 nm (ex: 280 nm). The emission was measured with intervals of the 30 s for 30 min with Synergy H1 Plate Reader (Agilent, USA). […]
Enter a number only.

Suppose we examine the molecule Cc1cc(=O)[nH]c(-n2nc(C)c(CCC(=O)NCCCCCCCCNC(=O)CCC(=O)NCc3c[nH]nn3)c2C)n1 ; what remaining activity (%) value has been reported?
40.04

Suppose we examine the molecule O=C(CCC(=O)NCc1c[nH]nn1)NCCCCCCCCNC(=O)Cn1cnc2c(oc3ccccc32)c1=O ; what remaining activity (%) value has been reported?
40.43

Suppose we examine the molecule Cc1cc(=O)[nH]c(-n2nc(C)c(CCC(=O)NCCOCCOCCNC(=O)CCC(=O)NCc3c[nH]nn3)c2C)n1 ; what remaining activity (%) value has been reported?
39.80

----------
target_or_system: MMP-9 (Homo sapiens, UniProt P14780)
Construct: purchased Sino Biological 10327-HNAH
test_summary: MMP-9 inhibition assay (fluorogenic peptide substrate)
Format: biochemical
Set-up: scale not given here
experimental_setup: MMP-9, concentration 1.95 µM
assay_readout: remaining enzyme activity (% of control)
Enter a number only.

Suppose we examine the molecule Cn1c(O)nc2cc(C(=O)NCCNC(=O)Cn3cnc4c(oc5ccccc54)c3=O)cnc21 ; what remaining enzyme activity (% of control) value has been reported?
89.70

Suppose we examine the molecule Cn1c(O)nc2cc(C(=O)NCCCCC=CC(=O)CC(=O)NCCNC(=O)Cn3cnc4c(oc5ccccc54)c3=O)cnc21 ; what remaining enzyme activity (% of control) value has been reported?
88.98

Suppose we examine the molecule O=C(Cn1cnc2c(oc3ccccc32)c1=O)NCCCCCCCCNC(=O)c1cncc(O)c1 ; what remaining enzyme activity (% of control) value has been reported?
91.84

Suppose we examine the molecule O=C(CCC(=O)NCc1c[nH]nn1)NCCCCCCCCNC(=O)Cn1cnc2c(oc3ccccc32)c1=O ; what remaining enzyme activity (% of control) value has been reported?
91.34
